Target: Short transient receptor potential channel 6 (Mus musculus) (UniProt Q61143)
Sequence (Q61143 whole entry, looked up): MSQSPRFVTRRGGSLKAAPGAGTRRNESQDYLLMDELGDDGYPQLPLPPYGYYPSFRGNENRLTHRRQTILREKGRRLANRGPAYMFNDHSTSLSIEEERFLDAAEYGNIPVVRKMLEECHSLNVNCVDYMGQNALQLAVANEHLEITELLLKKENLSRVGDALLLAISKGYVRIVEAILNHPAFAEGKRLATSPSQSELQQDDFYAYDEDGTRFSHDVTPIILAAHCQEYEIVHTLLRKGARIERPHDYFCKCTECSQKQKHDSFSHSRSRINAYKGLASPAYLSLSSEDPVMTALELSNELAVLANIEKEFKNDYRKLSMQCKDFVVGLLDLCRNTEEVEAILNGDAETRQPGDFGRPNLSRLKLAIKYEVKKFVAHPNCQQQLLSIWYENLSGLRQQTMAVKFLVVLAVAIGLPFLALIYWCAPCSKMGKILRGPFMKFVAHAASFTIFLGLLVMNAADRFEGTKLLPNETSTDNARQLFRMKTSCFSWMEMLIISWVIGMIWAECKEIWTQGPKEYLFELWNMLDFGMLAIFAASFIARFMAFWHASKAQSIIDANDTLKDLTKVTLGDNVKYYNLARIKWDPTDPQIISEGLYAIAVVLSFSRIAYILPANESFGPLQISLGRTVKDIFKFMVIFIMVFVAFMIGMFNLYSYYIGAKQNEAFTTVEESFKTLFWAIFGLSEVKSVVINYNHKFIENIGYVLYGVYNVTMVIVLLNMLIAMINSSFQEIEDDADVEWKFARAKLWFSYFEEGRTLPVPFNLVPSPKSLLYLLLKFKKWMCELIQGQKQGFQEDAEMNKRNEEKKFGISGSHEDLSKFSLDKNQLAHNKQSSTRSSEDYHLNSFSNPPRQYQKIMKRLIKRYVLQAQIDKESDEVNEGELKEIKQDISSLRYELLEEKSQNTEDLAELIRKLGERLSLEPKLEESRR
Test: activation of mouse TRPC6 channel, confirmation, selectivity assay for TRPC4 activator project, cell-based, HEK293, membrane potential dye, duplicate (AID 434950)
Conditions: HEK293 TRPC6, membrane potential fluorescence, at 10 µM
Activity calls are given as the source filed them.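 The calls were made as follows: active = membrane potential signal rise above negative control mean plus 3 SD in both duplicates, also active in the earlier TRPC4 screen; inactive = the rest.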
Hello, when you answer, please use one of the following outcomes: true = active, false = inactive

Examples with answers:
>>> assigned_category("CC(N)Cc1c[nH]c2cc3c(cc12)OCCO3 (stereo not drawn)")
"false"
>>> assigned_category("CN1CCN(c2ccc([N+](=O)[O-])c3cccnc23)CC1")
"false"
>>> assigned_category("Clc1ccc2c(c1)C(c1ccccc1Cl)=NCc1nnc(N3CCN(CCOc4ccccc4)CC3)n1-2")
"false"
>>> assigned_category("CC(Cc1ccccc1)NCC(=O)Nc1cc(N(C)C)nc2ccccc12 (stereo not drawn)")
"false"
>>> assigned_category("Cc1ccc(-c2nc(N(C)C3CCN(C)CC3)c3ccccc3n2)cc1")
"false"
>>> assigned_category("CCNCCNc1ccc([N+](=O)[O-])c2cccnc12")
"false"
>>> assigned_category("CC(Cc1ccccc1Sc1ccccc1O)N(C)C (stereo not drawn)")
"false"
>>> assigned_category("Cc1c(P(=S)(c2ccccc2)c2ccccc2)[n+]2ccccc2n1C")
"false"

**Q:** Recorded test outcome, item `CCc1nccc2c1[nH]c1ccccc12`
**A:** false

**Q:** Recorded test outcome, item `Nc1ccccc1-[n+]1c(-c2ccccc2)cc(-c2ccccc2)cc1-c1ccccc1`
**A:** false
